Target: wild-type TAS2R16 (Homo sapiens, UniProt Q9NYV7)
Construct: FLAG (N); expressed in transfected cells; host or cells: HEK-293T
Sequence (Q9NYV7 1-291): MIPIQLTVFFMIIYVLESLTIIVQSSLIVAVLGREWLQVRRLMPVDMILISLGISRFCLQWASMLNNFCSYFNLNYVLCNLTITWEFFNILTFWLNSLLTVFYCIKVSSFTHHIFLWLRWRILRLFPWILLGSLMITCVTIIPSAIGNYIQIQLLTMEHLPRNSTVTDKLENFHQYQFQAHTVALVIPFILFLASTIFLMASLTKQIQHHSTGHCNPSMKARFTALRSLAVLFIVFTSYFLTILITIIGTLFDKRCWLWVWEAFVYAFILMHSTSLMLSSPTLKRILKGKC
Experiment: Ca2+ flux assay, HEK-293T cells expressing wild-type TAS2R16 and Gα16gust44
Assay type: cell-based
Conditions: Fig. 5b dose-response, wild-type TAS2R16; read-out: EC50 (WT)
Hi there, I'd appreciate the recorded pEC50 for every entry that follows.
Interpret pEC50 as the negative base-10 log of the concentration measured in mol/L.

Q) Supply pEC50 measured with wild-type TAS2R16 (Homo sapiens, UniProt Q9NYV7) for O=[N+]([O-])c1ccc(O[C@@H]2O[C@H](CO)[C@@H](O)[C@H](O)[C@H]2O)cc1 [4-NP-β-glucoside, 4-nitrophenyl-β-D-glucopyranoside] .
A) 2.31

Q) Supply pEC50 measured with wild-type TAS2R16 (Homo sapiens, UniProt Q9NYV7) for O=[N+]([O-])c1ccc(O[C@@H]2O[C@H](CO)[C@@H](O)[C@H](O)[C@@H]2O)cc1 [4-NP-β-mannoside, 4-nitrophenyl-β-D-mannopyranoside] .
A) 3.10

Q) Supply pEC50 measured with wild-type TAS2R16 (Homo sapiens, UniProt Q9NYV7) for OCc1ccccc1O[C@@H]1O[C@H](CO)[C@@H](O)[C@H](O)[C@H]1O .
A) 2.96

---

target: N96T TAS2R16 (Homo sapiens, UniProt Q9NYV7, N96T); construct: FLAG (N); test: Ca2+ flux assay, N96T TAS2R16 variant; settings: Fig. 7 dose-response
Hi there, I'd appreciate the recorded EC50 for every entry that follows.
Express your answer in µM, writing the number without its unit.

Q) Tell me EC50 reported for O=[N+]([O-])c1ccc(O[C@@H]2O[C@H](CO)[C@@H](O)[C@H](O)[C@@H]2O)cc1 [4-NP-β-mannoside, 4-nitrophenyl-β-D-mannopyranoside]
A) 200

Q) Tell me EC50 reported for OCc1ccccc1O[C@@H]1O[C@H](CO)[C@@H](O)[C@H](O)[C@H]1O [salicin]
A) 800

---

Hi there, I'd appreciate the recorded EC50 for every entry that follows.
Biological target: N96A TAS2R16 (Homo sapiens, UniProt Q9NYV7, N96A)
Construct: FLAG (N)
Sequence (Q9NYV7 1-291 N96A): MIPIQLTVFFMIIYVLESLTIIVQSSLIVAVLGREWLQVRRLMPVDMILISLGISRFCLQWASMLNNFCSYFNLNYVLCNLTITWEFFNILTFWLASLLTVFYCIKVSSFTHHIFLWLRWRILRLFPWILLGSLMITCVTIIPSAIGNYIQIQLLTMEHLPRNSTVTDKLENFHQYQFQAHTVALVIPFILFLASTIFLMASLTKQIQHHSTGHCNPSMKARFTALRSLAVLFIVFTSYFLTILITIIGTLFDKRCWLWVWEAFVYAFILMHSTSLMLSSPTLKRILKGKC
Experiment: Ca2+ flux assay, N96A TAS2R16 variant
Conditions: Fig. 7 dose-response
Don't forget the unit after the number, please.

Q) Tell me EC50 reported for OCc1ccccc1O[C@@H]1O[C@H](CO)[C@@H](O)[C@H](O)[C@H]1O
A) 6.5 mM

Q) Tell me EC50 reported for O=[N+]([O-])c1ccc(O[C@@H]2O[C@H](CO)[C@@H](O)[C@H](O)[C@@H]2O)cc1 [4-NP-β-mannoside, 4-nitrophenyl-β-D-mannopyranoside]
A) 1 mM

Source: paper PMC5552880
